B1: glmS ribozyme (parent)
chain: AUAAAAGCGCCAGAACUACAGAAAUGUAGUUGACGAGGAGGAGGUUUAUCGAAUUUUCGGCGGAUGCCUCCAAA

Variants of: B1
assay_remarks: self-cleavage kobs at 640 uM GlcN6P; higher = faster cleavage; RNA array
particulars: with glucosamine-6-phosphate
This sample holds only a part of the variants without activity.

- mutant_name: "G62A G66C C67A"
  self-cleavage kobs at 640 uM GlcN6P: "< 1e-05 s⁻¹"
- mutant_name: "A6C G35C U46A C61A"
  self-cleavage kobs at 640 uM GlcN6P: "< 1e-05 s⁻¹"
- mutant_name: "G13U G32C"
  self-cleavage kobs at 640 uM GlcN6P: "7.27e-05 s⁻¹"
- mutant_name: "A6U G63U"
  self-cleavage kobs at 640 uM GlcN6P: "< 1e-05 s⁻¹"
- mutant_name: "G40A G60A"
  self-cleavage kobs at 640 uM GlcN6P: "< 1e-05 s⁻¹"
- mutant_name: "A15G A42C A64C U69C"
  self-cleavage kobs at 640 uM GlcN6P: "< 1e-05 s⁻¹"
- mutant_name: "G13A U47A G60U"
  self-cleavage kobs at 640 uM GlcN6P: "< 1e-05 s⁻¹"
- mutant_name: "G35C G63A"
  self-cleavage kobs at 640 uM GlcN6P: "< 1e-05 s⁻¹"
- mutant_name: "C11U C70A"
  self-cleavage kobs at 640 uM GlcN6P: "8.46e-05 s⁻¹"
- mutant_name: "A14G G41U"
  self-cleavage kobs at 640 uM GlcN6P: "0.00124 s⁻¹"
- mutant_name: "C8G G63C"
  self-cleavage kobs at 640 uM GlcN6P: "< 1e-05 s⁻¹"
- mutant_name: "G32A C50U"
  self-cleavage kobs at 640 uM GlcN6P: "< 1e-05 s⁻¹"
- mutant_name: "C34G U57A"
  self-cleavage kobs at 640 uM GlcN6P: "< 1e-05 s⁻¹"
- mutant_name: "U31G G66A"
  self-cleavage kobs at 640 uM GlcN6P: "0.0011 s⁻¹"
- mutant_name: "A42G A48U G62U C71U"
  self-cleavage kobs at 640 uM GlcN6P: "< 1e-05 s⁻¹"
- mutant_name: "U65C C67G"
  self-cleavage kobs at 640 uM GlcN6P: "5.5e-05 s⁻¹"
- mutant_name: "A39G A48C"
  self-cleavage kobs at 640 uM GlcN6P: "0.000196 s⁻¹"
- mutant_name: "A15G G41A"
  self-cleavage kobs at 640 uM GlcN6P: "0.000767 s⁻¹"
- mutant_name: "A14C A36U G38A U69A"
  self-cleavage kobs at 640 uM GlcN6P: "7.64e-05 s⁻¹"
- mutant_name: "C8U A42G A48C"
  self-cleavage kobs at 640 uM GlcN6P: "< 1e-05 s⁻¹"
- mutant_name: "C19A"
  self-cleavage kobs at 640 uM GlcN6P: "0.00758 s⁻¹"
- mutant_name: "G43C U45G"
  self-cleavage kobs at 640 uM GlcN6P: "0.000694 s⁻¹"
- mutant_name: "C11A C70U"
  self-cleavage kobs at 640 uM GlcN6P: "0.00011 s⁻¹"
- mutant_name: "C10G U46A"
  self-cleavage kobs at 640 uM GlcN6P: "< 1e-05 s⁻¹"
- mutant_name: "C10G G44U C50U C61U"
  self-cleavage kobs at 640 uM GlcN6P: "< 1e-05 s⁻¹"
- mutant_name: "G37C U45G G63U"
  self-cleavage kobs at 640 uM GlcN6P: "< 1e-05 s⁻¹"
- mutant_name: "G13U A15G G32A C70G"
  self-cleavage kobs at 640 uM GlcN6P: "5.48e-05 s⁻¹"
- mutant_name: "U31C G37U"
  self-cleavage kobs at 640 uM GlcN6P: "< 1e-05 s⁻¹"
- mutant_name: "G13U G32A"
  self-cleavage kobs at 640 uM GlcN6P: "0.000465 s⁻¹"
- mutant_name: "A48U G63C"
  self-cleavage kobs at 640 uM GlcN6P: "< 1e-05 s⁻¹"
- mutant_name: "U55A U65C C68U"
  self-cleavage kobs at 640 uM GlcN6P: "0.000206 s⁻¹"
- mutant_name: "A6G A48C"
  self-cleavage kobs at 640 uM GlcN6P: "< 1e-05 s⁻¹"
- mutant_name: "U49A G66A"
  self-cleavage kobs at 640 uM GlcN6P: "< 1e-05 s⁻¹"
- mutant_name: "U45A"
  self-cleavage kobs at 640 uM GlcN6P: "0.0167 s⁻¹"
- mutant_name: "A42G A48U"
  self-cleavage kobs at 640 uM GlcN6P: "0.000148 s⁻¹"
- mutant_name: "G32C G41A U46G C71U"
  self-cleavage kobs at 640 uM GlcN6P: "< 1e-05 s⁻¹"
- mutant_name: "C10G G41C"
  self-cleavage kobs at 640 uM GlcN6P: "< 1e-05 s⁻¹"
- mutant_name: "A6U C11G U30G U31A A42U"
  self-cleavage kobs at 640 uM GlcN6P: "< 1e-05 s⁻¹"
- mutant_name: "G29U C34G G38U G44U"
  self-cleavage kobs at 640 uM GlcN6P: "< 1e-05 s⁻¹"
- mutant_name: "G9U A14C A64U C68A"
  self-cleavage kobs at 640 uM GlcN6P: "< 1e-05 s⁻¹"
- mutant_name: "G9U G32C C34G C58U C68G"
  self-cleavage kobs at 640 uM GlcN6P: "0.000182 s⁻¹"
- mutant_name: "G29A G35C"
  self-cleavage kobs at 640 uM GlcN6P: "< 1e-05 s⁻¹"
- mutant_name: "G41C G43U"
  self-cleavage kobs at 640 uM GlcN6P: "< 1e-05 s⁻¹"
- mutant_name: "A15C C50G A53G G62A C70G"
  self-cleavage kobs at 640 uM GlcN6P: "8.17e-05 s⁻¹"
- mutant_name: "G7C G51U"
  self-cleavage kobs at 640 uM GlcN6P: "< 1e-05 s⁻¹"
- mutant_name: "U45G G62A"
  self-cleavage kobs at 640 uM GlcN6P: "< 1e-05 s⁻¹"
